Origin of measurements: paper PMC5540273

Test system: CDK4;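 also: KINOMEscan kinase panel screen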
condition context: concentration: 1 μM,replicates: in singlicate; n = 1
metric: %Inh
// return the numeric value with its unit appended

Which %Inh value belongs to `COc1cc2nccc(Nc3ccc(Oc4ccccc4)cc3)c2cc1OC.Cl` ?
44%

Entry under review: `Cl.c1ccc(Oc2ccc(Nc3ccnc4cc(-c5ccc(CN6CCNCC6)o5)ccc34)cc2)nc1` . Reported %Inh?
14%

State the recorded %Inh for this entry: CS(=O)c1ccc(-c2coc3ccc(-c4n[nH]c(=O)o4)cc23)cc1 (centres unmarked)
10%

Name the recorded %Inh for `Nc1nccc(-c2ccc3c(N)n[nH]c3c2)n1` .
1%

# input compound: `CC(C)S(=O)(=O)N1CCN(Cc2ccc3c(c2)nc(NC(=O)c2ccsc2)n3C[C@H](O)c2ccccc2)CC1` ; wanted: its %Inh
42%

Find the recorded %Inh belonging to Cc1nnc(-c2ccc3occ(-c4ccc(S(C)=O)cc4)c3n2)o1 (centres unmarked) and report it.
0%

What value of measured %Inh is listed for `CCOC(=O)N1CCC(n2cnc(-c3ccc(F)cc3)c2-c2ccnc(N)n2)CC1` ?
32%

I am curious: what %Inh value has been reported for `Cc1ccn2nc(-c3ccc(F)cc3)c(-c3ccncc3)c2c1.Cl` ?
50%

Request the reported %Inh associated with COc1cc(Nc2nccc(N3CCC(NC(=O)c4cccc(C#N)c4)C3)n2)cc(OC)c1OC (centres unmarked)
27%

Reported %Inh for `O=C(Nc1ccccc1)c1cccc(Oc2ccc3nccn3n2)c1` : what is it?
22%

Suppose we examine the compound `Cn1ccc2ncnc(Oc3ccc(NC(=O)Nc4cc(C(C)(C)C)on4)c(Cl)c3)c21` ; what %Inh value has been reported?
2%

# input compound: `CN(c1cccc(CNc2nc(Nc3ccc4c(c3)CC(=O)N4)ncc2C(F)(F)F)c1)S(C)(=O)=O` ; wanted: its %Inh
0%

Quick one: %Inh of `CN(c1ccc2c(c1)nc(NCc1ccc(F)cc1)n2C)c1ccnc(Nc2ccc(CS(C)(=O)=O)cc2)n1.Cl` ?
22%

So what's the measured %Inh for this one? COC(=O)c1cccc(NC(=O)NC2CCN(c3ccnc(Nc4cc(OC)c(OC)c(OC)c4)n3)C2)c1 (centres unmarked)
37%

Bench note: what %Inh did `Cn1ccc2ncnc(Oc3ccc(NC(=O)Nc4ccnc(C(F)(F)F)c4)c(Cl)c3)c21` show?
0%

Would you mind telling me what %Inh value was observed for `Cn1ccc2ncnc(Oc3ccc(NC(=O)Nc4cncc(C(F)(F)F)c4)c(Cl)c3)c21` ?
0%

For the compound `Cc1ccc(C(=O)Nc2ccc(Oc3ccc4nc(NC(=O)C5CC5)cn4c3)c(F)c2)c(=O)n1-c1ccccc1` , what %Inh is on record?
0%
